Entries and their measured Kb follow.
- measured.target: NK1 receptor (Cavia porcellus, UniProt P30547)
- Construct: Guinea Pig Ileum; from tissue; host or cells: guinea pig ileum
- Sequence (P30547 whole entry): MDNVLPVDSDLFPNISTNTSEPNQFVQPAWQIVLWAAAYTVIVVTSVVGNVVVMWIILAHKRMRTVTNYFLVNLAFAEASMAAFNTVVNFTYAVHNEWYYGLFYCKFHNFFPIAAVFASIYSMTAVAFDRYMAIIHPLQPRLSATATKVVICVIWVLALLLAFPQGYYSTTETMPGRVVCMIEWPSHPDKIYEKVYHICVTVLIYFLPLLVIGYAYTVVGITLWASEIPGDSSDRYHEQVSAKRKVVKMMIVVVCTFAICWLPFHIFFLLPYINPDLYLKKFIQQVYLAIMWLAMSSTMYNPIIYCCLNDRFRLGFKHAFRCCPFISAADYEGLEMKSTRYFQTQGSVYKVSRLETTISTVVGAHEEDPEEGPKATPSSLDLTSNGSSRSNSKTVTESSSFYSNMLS
- protocol.details: NK1 antagonist activity in an in vitro NK1 preparation (guinea pig ileum), antagonism of substance-P methylester
- Assay type: cell-based
- measurement.setup: vs substance-P methylester
assay.endpoint: Kb

>>> observed_result("C[C@](Cc1c[nH]c2ccccc12)(NC(=O)OCc1cc2ccccc2o1)C(=O)N[C@@H](CN)c1ccccc1 [Example 8]")
"16 nM"
>>> observed_result("C[C@](Cc1c[nH]c2ccccc12)(NC(=O)OCc1cc(F)ccc1F)C(=O)N[C@@H](CO)c1ccccc1 [Example 17]")
"9.3 nM"
>>> observed_result("C[C@](Cc1c[nH]c2ccccc12)(NC(=O)OCc1cc2ccccc2s1)C(=O)N[C@@H](CO)c1ccccc1 [Example 18]")
"6.3 nM"
>>> observed_result("C[C@](Cc1c[nH]c2ccccc12)(NC(=O)OCc1ccccc1F)C(=O)N[C@@H](CO)c1ccccc1 [Example 16]")
"10.6 nM"
>>> observed_result("CN(C)CC(=O)OC[C@H](NC(=O)[C@@](C)(Cc1c[nH]c2ccccc12)NC(=O)OCc1cc2ccccc2o1)c1ccccc1 [Example 9]")
"6.2 nM"
>>> observed_result("C[C@](Cc1c[nH]c2ccccc12)(NC(=O)OCc1cc2ccccc2o1)C(=O)N[C@@H](CO)c1ccccc1 [Example 6]")
"1.3 nM"
>>> observed_result("CC(C)C[C@H](N)C(=O)OC[C@H](NC(=O)[C@@](C)(Cc1c[nH]c2ccccc12)NC(=O)OCc1cc2ccccc2o1)c1ccccc1 [Example 12]")
"22 nM"

* * *

- measured.target: tachykinin NK1 receptor (Homo sapiens, UniProt P25103)
- Construct: tachykinin NK1 receptor sites in human IM9 lymphoma cells; endogenous in cells
- Sequence (P25103 whole entry): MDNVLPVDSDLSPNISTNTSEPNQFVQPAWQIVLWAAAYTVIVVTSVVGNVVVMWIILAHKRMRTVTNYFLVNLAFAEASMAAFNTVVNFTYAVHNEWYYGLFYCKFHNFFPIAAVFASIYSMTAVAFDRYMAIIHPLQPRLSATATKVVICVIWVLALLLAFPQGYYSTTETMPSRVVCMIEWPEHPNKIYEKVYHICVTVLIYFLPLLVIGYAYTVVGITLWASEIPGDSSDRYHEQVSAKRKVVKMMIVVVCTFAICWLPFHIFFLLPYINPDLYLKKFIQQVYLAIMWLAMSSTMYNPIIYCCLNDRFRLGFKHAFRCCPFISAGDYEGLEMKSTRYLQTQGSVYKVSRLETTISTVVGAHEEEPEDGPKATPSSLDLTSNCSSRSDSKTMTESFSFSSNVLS
- protocol.details: NK1 binding in human IM9 lymphoma cells, displacement of [125I]Bolton Hunter Substance-P
pIC50: −log10 of the molar value.
Entries and their measured pIC50 follow.
assay.endpoint: pIC50

>>> observed_result("CN(C)CC(=O)NC[C@H](NC(=O)[C@@](C)(Cc1c[nH]c2ccccc12)NC(=O)OCc1cc2ccccc2o1)c1ccccc1 [Example 10]")
7.08
>>> observed_result("C[C@](Cc1c[nH]c2ccccc12)(NC(=O)OCc1cc(F)ccc1F)C(=O)N[C@@H](CO)c1ccccc1 [Example 17]")
8.41
>>> observed_result("C[C@](Cc1c[nH]c2ccccc12)(NC(=O)OCc1cc2ccccc2o1)C(=O)N[C@@H](CO)c1ccccc1 [Example 6]")
8.92
>>> observed_result("CC(C)C[C@H](N)C(=O)OC[C@H](NC(=O)[C@@](C)(Cc1c[nH]c2ccccc12)NC(=O)OCc1cc2ccccc2o1)c1ccccc1 [Example 12]")
7.80
>>> observed_result("C[C@](Cc1c[nH]c2ccccc12)(NC(=O)OCc1ccccc1)C(=O)N[C@@H](CO)c1ccccc1 [Example 15]")
7.24
>>> observed_result("C[C@](Cc1c[nH]c2ccccc12)(NC(=O)OCc1cc2ccccc2s1)C(=O)N[C@@H](CO)c1ccccc1 [Example 18]")
8.05
>>> observed_result("CN(C)CC(=O)OC[C@H](NC(=O)[C@@](C)(Cc1c[nH]c2ccccc12)NC(=O)OCc1cc2ccccc2o1)c1ccccc1 [Example 9]")
7.92
>>> observed_result("C[C@](Cc1c[nH]c2ccccc12)(NC(=O)OCc1ccccc1F)C(=O)N[C@@H](CO)c1ccccc1 [Example 16]")
8.48
>>> observed_result("C[C@](Cc1c[nH]c2ccccc12)(NC(=O)OCc1cc2ccccc2o1)C(=O)N[C@@H](CN)c1ccccc1 [Example 8]")
7.89
